Test system: HEK-293T
Assay: Incucyte cell viability with HEK293T; also: unitless GR value; below 1 slowed growth and below 0 cell loss
Format: toxicity, cell-based
Conditions: human, 12 h, 10 µM, compound concentration 10 uM, replicate number 1, timepoint 12 hours
QUANTITY MEASURED: Growth Rate
Please reply with the value in numeric form only.

Here's what some known entries look like.
COMPOUND	QUANTITY MEASURED	VALUE MEASURED
COC(=O)Nc1nc2ccc(C(=O)c3cccs3)cc2[nH]1 [NOCODAZOLE]	Growth Rate	-0.24
CCCCC/C=C\C/C=C\C/C=C\C/C=C\CCCC(=O)NCC(=O)O [ARACHIDONOYL GLYCINE]	Growth Rate	0.8

Incoming: Endpoint output: Growth Rate of `Br.Br.c1ncc(CC2CCNCC2)[nH]1` . Value?
Outgoing: 0.99

Incoming: Endpoint output: Growth Rate of N#Cc1cc2c(OCC(O)CN3CCN(C(c4ccccc4)c4ccccc4)CC3)cccc2[nH]1 (racemic) . Value?
Outgoing: 0.54

---

System: Fibroblast
Experiment: Incucyte cell viability with human fibroblast; also: unitless GR value; below 1 slowed growth and below 0 cell loss
Assay type: toxicity, cell-based
Settings: 18 h, 10 µM, compound concentration 10 uM, replicate number 1, timepoint 18 hours
Reported Growth Rate values are given for each entry in this list.
Please reply with the value in numeric form only.

Here's what some known entries look like.
> print(dat)
                                   compound  quantity.measured  value.measured
1  CCCCCCCCCCCCC/C=C/[C@@H](O)[C@@H](N)COP(=O)([O-])OCC[N+](C)(C)C        Growth Rate           -0.17
2  Cl.Cl.NCCc1c[nH]cn1 [HISTAMINE DIHYDROCHLORIDE]        Growth Rate            0.99
3  CC(C)Oc1ccc(-c2nc(-c3cccc4c3CC[C@@H]4NCCO)no2)cc1C#N        Growth Rate            0.03
4  COc1cc(C(=O)N2CC[C@@H](O)[C@@H](N)C2)cc2nc(-c3cc4ccccc4n3CC3CC3)n(C)c12.Cl        Growth Rate           -0.63
5      CC(C)Oc1ccc(Cc2ccc(NC3=NCCN3)cc2)cc1        Growth Rate            0.28

Incoming: Fibroblast / Growth Rate / `Cc1c(C(=O)NN2CCCCC2)nn(-c2ccc(Cl)cc2Cl)c1-c1ccc(Cl)cc1` : value?
Outgoing: -0.03

Incoming: Fibroblast / Growth Rate / `CNC(=O)c1nn(C)c2c1C(C)(C)Cc1cnc(Nc3ccc(N4CCN(C)CC4)cc3)nc1-2` : value?
Outgoing: 0.24

Incoming: Fibroblast / Growth Rate / `O=C1NC(=Nc2c(Cl)cccc2Cl)S/C1=C\c1ccc2nccnc2c1` : value?
Outgoing: 0.4

Incoming: Fibroblast / Growth Rate / `Cc1cc(Cn2cnc3c2C[C@@H](C(=O)O)N(C(=O)C(c2ccccc2)c2ccccc2)C3)ccc1N(C)C` : value?
Outgoing: 0.53

Incoming: Fibroblast / Growth Rate / `CCCCCCCCCCCCCCC[C@@H](O)[C@@H](N)COP(=O)(O)O` : value?
Outgoing: 0.43

---

System: Fibroblast
Experiment: Incucyte cell viability with human fibroblast; also: unitless GR value; below 1 slowed growth and below 0 cell loss
Format: toxicity, cell-based
Settings: 18 h, 10 µM, compound concentration 10 uM, replicate number 2, timepoint 18 hours
QUANTITY MEASURED: Growth Rate

> print(dat)
                              smiles.string  value.measured
1  CCOC(=O)c1c(/C(C#N)=C\N)c2ccc(Cl)c(Cl)c2n1C            0.72
2  OCCN1CCN(CCCN2c3ccccc3Sc3ccc(Cl)cc32)CC1            0.44
3    CCCCOCCOc1nc(-c2ccc(C(=O)O)c(F)c2)sc1C            0.73
4  CC(C)c1cc(Oc2c(Cl)cc(-n3nc(C#N)c(=O)[nH]c3=O)cc2Cl)n[nH]c1=O            0.87

// moving on: another record for Growth Rate
Incoming: Fibroblast / Growth Rate / `CC(C)OC(=O)N1CCC(Oc2ncnc3c2cnn3-c2ccc(S(C)(=O)=O)cc2F)CC1` : value?
Outgoing: 0.58

---

System: Fibroblast
Assay: Incucyte cell viability with human fibroblast; also: unitless GR value; below 1 slowed growth and below 0 cell loss
Assay type: toxicity, cell-based
Settings: 12 h, 10 µM, compound concentration 10 uM, replicate number 2, timepoint 12 hours
Reported Growth Rate values are given for each entry in this list.
Please reply with the value in numeric form only.

Here's what some known entries look like.
COMPOUND	Growth Rate
Cc1cc(O)c(-c2ccc([C@@H](C)CN(C)C)cc2)c2c1[nH]c(=O)c1sccc12	-0.4
COc1cc(OC2CCN(C(C)=O)CC2)ccc1C(=O)N1CCC(N2C(=O)OCc3ccccc32)CC1	0.65
Cc1cnc(CNCC2(F)CCN(C(=O)c3ccc(F)c(Cl)c3)CC2)nc1	0.62

Incoming: Endpoint output: Growth Rate of `CCNC(=O)[C@H]1O[C@@H](n2cnc3c(N)nc(NCCc4ccc(CCC(=O)O)cc4)nc32)[C@H](O)[C@@H]1O.Cl` . Value?
Outgoing: 0.63

Incoming: Endpoint output: Growth Rate of `O=C(NC[C@@H]1[C@H]2CN(C(=O)OCc3cc(C(F)(F)F)cc(C(F)(F)F)c3)C[C@@H]12)c1ccc2[nH]nnc2c1` . Value?
Outgoing: -0.1

Incoming: Endpoint output: Growth Rate of `COc1ncc2cc(C(=O)Nc3cc(C(=O)NCc4cccc(Cl)c4)ccc3Cl)c(=O)[nH]c2n1` . Value?
Outgoing: 0.41

Incoming: Endpoint output: Growth Rate of COC[C@@H](c1ccc(C(F)(F)F)cc1)N1CCN(C2(C)CCN(C(=O)c3c(C)ncnc3C)CC2)C[C@@H]1C.O=C(O)/C=C\C(=O)O [VICRIVIROC MALEATE] . Value?
Outgoing: 0.68

Incoming: Endpoint output: Growth Rate of `O=S(=O)(c1ccccc1)N(CC(F)(F)F)c1ccc(C(O)(C(F)(F)F)C(F)(F)F)cc1` . Value?
Outgoing: 0.22

Incoming: Endpoint output: Growth Rate of `CCOc1nc2cccc(C(=O)O)c2n1Cc1ccc(-c2ccccc2-c2nnn[nH]2)cc1` . Value?
Outgoing: 0.56

---

Reported Growth Rate values are given for each entry in this list.
Tested on: U2OS
Assay: Incucyte cell viability with U2OS; also: unitless GR value; below 1 slowed growth and below 0 cell loss
Format: toxicity, cell-based
Conditions: human, 24 h, 10 µM, compound concentration 10 uM, replicate number 2, timepoint 24 hours

Incoming: Endpoint output: Growth Rate of `Cc1cc(Nc2ncc(Cl)c(Nc3ccccc3S(=O)(=O)C(C)C)n2)c(OC(C)C)cc1C1CCNCC1` . Value?
Outgoing: -0.42

Incoming: Endpoint output: Growth Rate of `Cc1c(CC(=O)O)c2cccnc2n1Cc1ccc(S(C)(=O)=O)cc1C(F)(F)F` . Value?
Outgoing: 0.88

Incoming: Endpoint output: Growth Rate of `CO[C@H]1CC[C@@H](C(=O)c2ccc3nc4c(cc3c2)CCCO4)CC1` . Value?
Outgoing: 0.78

Incoming: Endpoint output: Growth Rate of O=S(=O)(c1ccccc1)c1cnc2c(N3CCNCC3)cccc2c1 [INTEPIRDINE] . Value?
Outgoing: 0.84

Incoming: Endpoint output: Growth Rate of `C[C@]12N[C@H](Cc3ccccc31)c1ccccc12` . Value?
Outgoing: 0.98

Incoming: Endpoint output: Growth Rate of COC(=O)[C@H]1[C@H]2C[C@H]3c4[nH]c5ccccc5c4CCN3C[C@H]2CC[C@@H]1O.Cl [RAUWOLSCINE HYDROCHLORIDE] . Value?
Outgoing: 0.98

Incoming: Endpoint output: Growth Rate of `CCN1/C(=C/C(C)=O)Sc2ccc(OC(C)=O)cc21` . Value?
Outgoing: 0.93

Incoming: Endpoint output: Growth Rate of `COc1ccc(C(=O)N2CCN(C(=O)/C=C/c3ccc(Br)cc3)CC2)cc1` . Value?
Outgoing: 0.73

Incoming: Endpoint output: Growth Rate of Br.Cc1cccc(C2CN(C)CCc3c2cc(O)c(O)c3Cl)c1 (centres undefined) . Value?
Outgoing: 0.97

---

Test system: U2OS
Test: Incucyte cell viability with U2OS; also: unitless GR value; below 1 slowed growth and below 0 cell loss
Assay type: toxicity, cell-based
Conditions: human, 24 h, 10 µM, compound concentration 10 uM, replicate number 2, timepoint 24 hours
Reported Growth Rate values are given for each entry in this list.
Please reply with the value in numeric form only.

Here's what some known entries look like.
> print(dat)
                                   molecule  quantity.measured  value.measured
1  Cc1ccc(Cn2nc(C(=O)N[C@@H]3C(C)(C)[C@@H]4CC[C@@]3(C)C4)cc2-c2ccc(Cl)c(C)c2)cc1        Growth Rate            0.74
2  CN1CCc2cc(Cl)c(O)cc2[C@@H](c2ccccc2)C1.Cl        Growth Rate            0.95

// moving on: another record for Growth Rate
Incoming: Endpoint output: Growth Rate of C[C@]1(O)CC[C@H]2[C@@H]3CCC4=CC(=O)CCC4=C3C=C[C@@]21C [METRIBOLONE] . Value?
Outgoing: 0.86
